# Relative cAMP EC50 per entry
- subject_of_test: hGLP-1R (Homo sapiens, UniProt P43220)
- Sequence (P43220 24-463): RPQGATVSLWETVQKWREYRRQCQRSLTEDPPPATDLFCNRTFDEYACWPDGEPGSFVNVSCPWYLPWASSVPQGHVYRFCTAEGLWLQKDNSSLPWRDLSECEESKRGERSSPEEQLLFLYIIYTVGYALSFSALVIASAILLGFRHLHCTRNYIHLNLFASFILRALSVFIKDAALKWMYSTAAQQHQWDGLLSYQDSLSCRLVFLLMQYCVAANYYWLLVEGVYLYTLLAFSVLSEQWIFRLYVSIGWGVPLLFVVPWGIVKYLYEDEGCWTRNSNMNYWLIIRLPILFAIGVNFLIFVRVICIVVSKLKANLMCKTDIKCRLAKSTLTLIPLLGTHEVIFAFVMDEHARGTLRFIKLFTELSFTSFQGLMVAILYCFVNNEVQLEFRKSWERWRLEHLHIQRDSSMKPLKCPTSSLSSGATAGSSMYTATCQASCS
- assay_details: cell-based or functional assay

binder	Relative cAMP EC50 (nM)
YXQGTFTSDFSXXLDKKAQXAFIEWLLEGGSSSGAPPPSGH (synthetic construct; SITE 2: note = 2-Aminoisobutyric Acid; SITE 12: note = L-ornithine; SITE 13: note = alpha-methyl-leucine; SITE 17: note = Lysine is chemically modified through conjugation of the epsilon-amino group of the Lysine side chain with (2-[2-(2-Amino-ethoxy)-ethoxy]-acetyl)-(gamma-Glu)) [Example 270]	3.2
YXQGTFTSDFSXXLDKKAQXAFIEWLLEGGXSSGAPPPSGE (synthetic construct; SITE 2: note = 2-Aminoisobutyric Acid; SITE 12: note = L-ornithine; SITE 13: note = alpha-methyl-leucine; SITE 17: note = Lysine is chemically modified through conjugation of the epsilon-amino group of the Lysine side chain with (2-[2-(2-Amino-ethoxy)-ethoxy]-acetyl)-(gamma-Glu)) [Example 267]	5.86
YXQGTFTSDFSXXLDKKAQXAFIEYLLEAGPSSGAPPPSGT (non-natural residues, lysine acylation, C-terminal amide; synthetic construct; SITE 2: note = 2-Aminoisobutyric Acid; SITE 12: note = L-ornithine; SITE 13: note = alpha-methyl-leucine; SITE 17: note = Lysine is chemically modified through conjugation of the epsilon-amino group of the Lysine side chain with (2-[2-(2-Amino-ethoxy)-ethoxy]-acetyl)-(gamma-Glu)) [Example 210]	1.44
YXQGTFTSDFSIXLDKKAQXAFIEYLLEGGPSSGEPPPSEG (synthetic construct; SITE 2: note = 2-Aminoisobutyric Acid; SITE 13: note = alpha-methyl-leucine; SITE 17: note = Lysine is chemically modified through conjugation of the epsilon-amino group of the Lysine side chain with (2-[2-(2-Amino-ethoxy)-ethoxy]-acetyl)-(gamma-Glu)-CO-(CH2) 18-CO2H; SITE 20: n) [Example 288]	1.89
YXQGTFTSDFSRXLDKKAQXAFIEYLLEXGPSSGAPPPSGS (synthetic construct; SITE 2: note = 2-Aminoisobutyric Acid; SITE 13: note = alpha-methyl-leucine; SITE 17: note = Lysine is chemically modified through conjugation of the epsilon-amino group of the Lysine side chain with (2-[2-(2-Amino-ethoxy)-ethoxy]-acetyl)2-(gamma-Glu)-CO-(CH2 )16-CO2H; SITE 20:) [Example 80]	2.55
YXQGTXTSDXSILLDKKAQXAFIEYLEEGGPSSGAPPPSGSEE (Aib, αMeF(2F), 4Pal; lysine acylated C18 diacid; amide; synthetic construct; SITE 2: note = 2-Aminoisobutyric Acid; SITE 6: note = alpha-methyl-2-fluoro-L-phenylalanine; SITE 10: note = 3-(4-Pyridyl)-L-alanine; SITE 17: note = Lysine is chemically modified through conjugation of the epsilon-amino group of the Lysine side chain with (gamma-Glu)2-CO-(CH2)1) [Example 610]	1.66
